- tgt: human autotaxin (Homo sapiens)
- Construct: Conditioned media is collected from confluent Hep3B cells and concentrated 20-fold; endogenous in cells
- measurement.protocol: Human Autotaxin Assay (choline release from LPC)
- measurement.context: ATX in concentrated conditioned media from Hep3B cells, substrate LPC 14:0 100 uM, absorbance at 555 nm
pIC50: −log10 of the molar value.
measured.parameter: pIC50

Would you please look over these solved cases?
> print(dat)
                    structure.smiles.string  measured.parameter  observed.result
1  CCCn1cc(-n2cc(/C=C(\C#N)c3ccc(C(=O)O)cc3)c3ccc(Cl)cc32)cn1               pIC50           < 5.00
2  N#C/C(=C\c1cn(Cc2ccc(OC(F)F)cc2F)c2cc(Cl)ccc12)c1ccc(C(=O)O)cc1               pIC50     5.00 to 6.30
3  N#C/C(=C\c1cn(Cc2ccc(F)cc2)c2cc(Br)ccc12)c1ccc(C(=O)O)cc1               pIC50     5.00 to 6.30
4  N#C/C(=C\c1cn(Cc2ccccc2)c2cc(Cl)ccc12)c1cccc(C(=O)O)c1               pIC50     5.00 to 6.30

Request the reported pIC50 associated with COc1ccc(Cn2cc(/C=C(\C#N)c3ccc(C(=O)O)cc3)c3ccc(OC(F)(F)F)cc32)cn1
≥ 6.30

Request the reported pIC50 associated with COc1ccc(Cn2cc(/C=C(\C#N)c3ccc(C(=O)O)cc3)c3ccc(Cl)c(F)c32)cn1
≥ 6.30

Request the reported pIC50 associated with Cn1cc(Cn2cc(/C=C(\C#N)c3ccc(C(=O)O)cc3)c3ccc(Cl)cc32)cn1
5.00 to 6.30

Request the reported pIC50 associated with CS(=O)(=O)c1ccc2c(/C=C(\C#N)c3ccc(C(=O)O)cc3)cn(Cc3ccc(F)cc3)c2c1
5.00 to 6.30

Request the reported pIC50 associated with COc1ccc2c(/C=C(\C#N)c3ccc(C(=O)O)cc3)cn(Cc3ccc(F)cc3)c2c1
≥ 6.30

Request the reported pIC50 associated with N#C/C(=C\c1cn(Cc2ccc(C(F)(F)F)cc2)c2cc(Cl)ccc12)c1ccc(C(=O)O)cc1
5.00 to 6.30

---

- tgt: human autotaxin (Homo sapiens, UniProt Q13822)
- Construct: Conditioned media is collected from confluent Hep3B cells and concentrated 20-fold; endogenous in cells
- measurement.protocol: Human Autotaxin Assay (choline release from LPC)
- measurement.context: ATX in concentrated conditioned media from Hep3B cells, substrate LPC 14:0 100 uM, absorbance at 555 nm
Attribute: IC50

Would you please look over these solved cases?
> print(dat)
                    structure.smiles.string  observed.result
1  N#C/C(=C\c1cn(Cc2ccc(F)cc2)c2c(Cl)cccc12)c1ccc(C(=O)O)cc1     0.5 to 10 µM
2  COc1ccc(Cn2cc(/C=C(\C#N)c3ccc(C(=O)O)nc3)c3ccc(Cl)cc32)cn1         ≤ 0.5 µM
3  N#C/C(=C\c1cn(Cc2ccc(F)cc2)c2cc(Cl)ccc12)c1ccc(C(=O)O)nc1         ≤ 0.5 µM
4  N#C/C(=C\c1cn(Cc2cnc(C(F)(F)F)s2)c2c(F)c(Cl)ccc12)c1ccc(C(=O)O)cc1         ≤ 0.5 µM

Request the reported IC50 associated with N#C/C(=C\c1cn(Cc2ccc(F)cc2)c2cccc(Cl)c12)c1ccc(C(=O)O)cc1
0.5 to 10 µM
